assay-system: T1, CD27 expressed on the cell surface (HT1080_CD27 cells) (human, UniProt P26842 20-260); further: test concentration or dose not given here
T1 sequence (looked up): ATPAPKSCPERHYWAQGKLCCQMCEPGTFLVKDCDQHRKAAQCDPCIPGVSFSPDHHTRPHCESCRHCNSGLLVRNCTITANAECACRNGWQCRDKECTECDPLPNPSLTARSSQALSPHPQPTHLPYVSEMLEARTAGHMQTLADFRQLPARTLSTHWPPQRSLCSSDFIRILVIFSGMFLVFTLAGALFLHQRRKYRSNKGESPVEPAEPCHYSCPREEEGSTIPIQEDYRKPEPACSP
assay-details: cell-based or functional assay
quantity: IL-8, cross-linked by F(ab')2 fragment [abs. corr.] (abs. corr.)
Numbers only; they are read as abs. corr..

binder: P018.S.03.A.F02 (antibody, V domains shown, V regions on human Ig constant parts; also called AB27_53) VH: QSVEESGGRLVTPGTPLTLTCTVSGFSLSSNAMTWVRQAPGKGLEWIGFINTGGSTYYASWAKGRFTISKTSTTVDLKITSPTTEDTATYFCARDVGDSRGYYWGLWGQGTLVTVSS VL: AYDMTQTPASVPAAVGGTVTIKCQASEDIYSLLAWYQQKPGQPPKLLIYDASDLASGVPSRFRGSGSGTDYTLTISGVESADAATYYCQQGYTTYTTVDNIFGGGTEVVVK
unit-label: abs. corr.
value-measured: 1.22

binder: P018.S.04.A.A05 (antibody, V domains shown, V regions on human Ig constant parts; also called AB27_65) VH: QSLEESGGRLVTPGTPLTLTCTASGFTISSYEMGWVRQAPGEGLEYIGWIASGGSTFYASWAKGRFTISRTSTTVDLTITDLRPSDTGTYFCARGYVEFKLWGPGTLVTVSS VL: DIVMTQTPASVSESVGGTVTIKCQASQSIGSYLSWYQQKPGQPPKVLIYRASTLESGVPSRFEGSGSGTQFTLTISDLESADAATYYCQGYHSTSGYVAFGGGTELVVK
unit-label: abs. corr.
value-measured: 2.24

binder: P018.S.05.A.D04 (antibody, V domains shown, V regions on human Ig constant parts; also called AB27_87) VH: QSLEESGGDLVKPGASLTLTCTASEFDFNNNAMCWVRQAPGKGLEWIACIYIGNGGTWYASWAKGRFTISKSSSTTVTLQVTSLTAADTATYFCARGENIAYFILWGPGTLVTVSS VL: DIVMTQTPASVSAAVGGTVTIKCQASQSINSWLSWYQQKPGQPPKLLIYKASTLASGVPSRFKGSGSGTEFTLTISDLESADAATYYCQGYYYYSSSNYASNAFGGGTEVVVK
unit-label: abs. corr.
value-measured: 1.53

What does the record list as IL-8, cross-linked by F(ab')2 fragment [abs. corr.] for P018.S.06.A.H04 (antibody, V domains shown, V regions on human Ig constant parts; also called AB27_111) VH: QEKLEESGGGLVKPGGSLTLPCTASGFTLSSRYYMCWVRQAPGKGLEWIGCIYAGSLRTWYASWAKGRFTISKTSSTTVTLQMTSLTAADTATYFCARSPGVAASYPELWGPGTLVTVSS VL: AQVLTQTPSSVAAAVGGTVSISCQSSQSVGNADNLAWYQQKPGQPPNLLIYYAASLASGVPSRFKGSGSGTQFTLTISDLESDDAATYYCGGGYYNSTDTFYTFGGGTEVVVK ?
1.69

What does the record list as IL-8, cross-linked by F(ab')2 fragment [abs. corr.] for P018.S.03.A.E04 (antibody, V domains shown, V regions on human Ig constant parts; also called AB27_52) VH: QEQLKESGGGLVTPGGTLTLTCTVSGIDLSSYAISWVRQAPGKGLEWIGYIYVGSTTTWYASWVKGRSTISKTSSTTVDLKMTSLTTEDTATYFCARAYDSGYIGNSFYIFHPWGPGTLVTVSS VL: DIVMTQTPASVSATVGGTVTIKCQASQTISSRLAWYQQKPGQPPKLLIYSASTLASGVSSRFKGSGSGTEFTLTISDLESADGATYYCAGYGGLGITAFGGGTEVVVK ?
1.19
